Biological target: Peroxisome proliferator-activated receptor gamma (Homo sapiens)
Test: ATG_PPARg_TRANS: Attagene TRANS-FACTORIAL HepG2 Assay for human Peroxisome Proliferator-activated Receptor-gamma (PPARg) (AID 2283007)
Inconclusive results are not listed. Activity calls are given as the source filed them. The calls were made as follows: active = hit-call score of the fitted dose curve at least 0.9, where 1 is the maximum; inconclusive = response in the unintended direction; inactive = score below 0.9.
Could you please pick one outcome from this set? yes (1) = active, no (0) = inactive

C[N+](C)=CCl; no (0)

// outcome(item) with item = O=C(NC(=O)c1c(F)cccc1F)Nc1ccc(Oc2ccc(C(F)(F)F)cc2Cl)cc1F yes (1)

// outcome(item) with item = CC(C)c1ccc(O)cc1 no (0)

// outcome(item) with item = Nc1ccc(-c2ccc(N)c(N)c2)cc1N no (0)

// outcome(item) with item = O=S(=O)(O)OOS(=O)(=O)O no (0)

// outcome(item) with item = CC(C)(c1cc(Cl)c(O)c(Cl)c1)c1cc(Cl)c(O)c(Cl)c1 yes (1)

// outcome(item) with item = CCc1cccc(C)c1N(C(=O)CCl)[C@@H](C)COC yes (1)

// outcome(item) with item = N#Cc1cccc(C#N)c1 no (0)

// outcome(item) with item = CC(C)C#N no (0)

// outcome(item) with item = CCOC(=O)N(C)N=O no (0)

// outcome(item) with item = Nc1ccccc1C(=O)Oc1ccc2ccccc2c1 yes (1)

// outcome(item) with item = CC(C)(Cl)Cl no (0)

* * *

Target: X-box-binding protein 1 (Homo sapiens)
Experiment: ATG_Xbp1_CIS: Attagene CIS-FACTORIAL HepG2 Assay for human X-box Binding Protein 1 (XBP1) (AID 2282972)
Details: HepG2 XBP1 cis-element reporter, Attagene multiplex; actives raise or lower the signal
Active and inactive are the calls of the source. The calls were made as follows: active = hit-call score of the fitted dose curve at least 0.9, where 1 is the maximum; inactive = score below 0.9.
Could you please pick one outcome from this set? 1 = active, 0 = inactive

Example entries begin here.
O=CNC(N1CCN(C(NC=O)C(Cl)(Cl)Cl)CC1)C(Cl)(Cl)Cl (configuration not stated); 0
CC(O)CN(CC(C)O)CC(C)O (configuration not stated); 0
[Cl-].[Cl-].[Cl-].[Yb+3]; 0
CCCCCc1cc(O)cc(O)c1; 1
COC(=O)COc1ccc(Cl)cc1Cl; 0

Read the next record carefully.
// outcome(item) with item = N#CC(c1ccccc1)c1ccccc1 0

* * *

Assay: ATG_PPRE_CIS: Attagene CIS-FACTORIAL HepG2 Assay for human Peroxisome Proliferator-activated Response Element (PPRE) (AID 2282958)
Conditions: HepG2 PPRE cis-element reporter, Attagene transcription factor profiling; actives raise or lower the signal
The source made the active and inactive calls. The calls were made as follows: active = hit-call score of the fitted dose curve at least 0.9, where 1 is the maximum; inactive = score below 0.9.
Could you please pick one outcome from this set? Y for active, N for inactive

Example entries begin here.
C=C(Cl)Cl; N
O=C(NC(=O)c1c(F)cccc1F)Nc1ccc(Oc2ccc(C(F)(F)F)cc2Cl)cc1F; N
Nc1ccc([N+](=O)[O-])cc1N; N
C[N+](=O)[O-]; N
Cc1ccc(N(SC(F)(Cl)Cl)S(=O)(=O)N(C)C)cc1; Y

// outcome(item) with item = C=COCCCl N

// outcome(item) with item = Cl/C=C\CCl N

// outcome(item) with item = Nc1ccc(-c2ccc(N)c(N)c2)cc1N N

// outcome(item) with item = O=c1c2ccccc2c(=O)c2c1cc(Cl)c1[nH]c3c([nH]c12)c(Cl)cc1c(=O)c2ccccc2c(=O)c13 N

// outcome(item) with item = CCCCCc1cc(O)cc(O)c1 Y

// outcome(item) with item = O=C(O)c1cc[c]([Hg][Cl])cc1 N

* * *

Assay: CCTE_Shafer_MEA_dev_per_network_spike_spike_percent: CCTE's Neural Network Formation Assay for Percent of Spikes in a Network Spike, Shafer Lab (AID 2284054)
The source made the active and inactive calls. How the source made its calls: active means hit-call score of the fitted dose curve at least 0.9, where 1 is the maximum; inactive means score below 0.9.
Could you please pick one outcome from this set? label 1 = active, label 0 = inactive

CCOP(=O)(OCC)SCSC(C)(C)C; label 0
C#CCN(C)[C@H](C)Cc1ccccc1; label 0
CCOP(=O)(OCC)OC(Cl)C(Cl)(Cl)Cl (configuration not stated); label 1

// outcome(item) with item = COP(=O)(OC)SCN1C(=O)c2ccccc2C1=O label 0

// outcome(item) with item = c1ccc2cc3c(cc2c1)-c1cccc2cccc-3c12 label 0

// outcome(item) with item = CCC[CH2][Sn]([CH2]CCC)([CH2]CCC)[O][Sn]([CH2]CCC)([CH2]CCC)[CH2]CCC label 1

// outcome(item) with item = CCOP(=O)(OCC)SCSCC label 1

// outcome(item) with item = CP(=O)(O)CCC(N)C(=O)O (configuration not stated) label 0

// outcome(item) with item = CCOP(=S)(OCC)SCS(=O)C(C)(C)C (configuration not stated) label 0

// outcome(item) with item = CCCCC(CC)COC(=O)c1cc(Br)c(Br)c(Br)c1Br (configuration not stated) label 1

* * *

Target: Nucleoli Translocation, AR (gene 367)
Assay: UPITT_HCI_U2OS_AR_TIF2_Nucleoli_Antagonist: University of Pittsburgh U2OS Androgen Receptor-Transcriptional Intermediary Factor 2 (AR-TIF2) Antagonism High Content Imaging Assay for Nucleoli Translocation (AID 2283997)
Excerpt: UPITT_AR_TIF2_PPIB is a cell-based, high-content imaging assay that uses U2OS, a human osteosarcoma cell line, expressing a human androgen receptor fused to red fluorescent protein and the coactivator TIF2 fused to green fluorescent protein. UPITT_HCI_U2OS_AR_TIF2_Nucleoli_Antagonist is one of four assay components measured from the UPITT_AR_TIF2_PPIB assay. […]
Results filed as inconclusive are left out. Calls of active or inactive are those of the source. The calls were made as follows: active = hit-call score of the fitted dose curve at least 0.9, where 1 is the maximum; inconclusive = response in the unintended direction; inactive = score below 0.9.
Could you please pick one outcome from this set? active, inactive

// outcome(item) with item = ClC1=C(Cl)[C@]2(Cl)[C@H]3[C@H]([C@H](Cl)C(Cl)[C@@H]3Cl)[C@@]1(Cl)C2(Cl)Cl (some centres undefined) inactive

* * *

Target: Cellular tumor antigen p53 (Homo sapiens) (UniProt P04637)
Sequence (P04637 whole entry, looked up): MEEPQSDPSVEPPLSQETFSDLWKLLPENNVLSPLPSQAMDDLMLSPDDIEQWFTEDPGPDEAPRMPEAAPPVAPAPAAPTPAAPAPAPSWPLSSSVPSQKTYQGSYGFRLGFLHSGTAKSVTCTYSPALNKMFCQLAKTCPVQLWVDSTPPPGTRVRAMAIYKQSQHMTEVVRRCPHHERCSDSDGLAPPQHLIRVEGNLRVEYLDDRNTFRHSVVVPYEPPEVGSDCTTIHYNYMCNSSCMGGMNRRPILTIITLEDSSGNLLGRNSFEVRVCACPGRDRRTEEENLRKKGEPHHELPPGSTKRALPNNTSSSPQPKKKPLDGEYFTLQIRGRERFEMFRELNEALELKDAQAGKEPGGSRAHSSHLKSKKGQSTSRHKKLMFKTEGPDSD
Test: TOX21_p53_BLA_p5_ratio: Tox21 HCT-116 p53 Agonism Beta-lactamase Assay, Ratio, Phase 5 (AID 2283599)
Records with an inconclusive call do not appear. Active and inactive are the calls of the source. Rule for the calls: active = hit-call score of the fitted dose curve at least 0.9, where 1 is the maximum; inconclusive = response in the unintended direction; inactive = score below 0.9.
Could you please pick one outcome from this set? t = active, f = inactive

COc1cc(OC)nc(Oc2cccc(Oc3nc(OC)cc(OC)n3)c2C(=O)O)n1; f
O=[N+]([O-])c1cccc2cccnc12; f
Clc1cc(Cl)c(-c2cc(Cl)c(Cl)cc2Cl)cc1Cl; f
CCOC(=S)S; f
CC(N)Cc1ccc(O)cc1 (stereo not drawn); f

// outcome(item) with item = [N-]=[N+]=CC(=O)OC[C@H](N)C(=O)O f

// outcome(item) with item = C[C@@H](CO)NC(=O)[C@@H]1C=C2c3cccc4[nH]cc(c34)C[C@H]2N(C)C1 f

// outcome(item) with item = CCCCN(N=O)C(=N)N[N+](=O)[O-] t

// outcome(item) with item = CCc1cc(OC)c(C[C@H](C)N)cc1OC f

* * *

Molecular target: human Retinoic Acid Receptor beta (RARb), RARB (gene 5915) (UniProt P10826)
Sequence (P10826 whole entry, looked up): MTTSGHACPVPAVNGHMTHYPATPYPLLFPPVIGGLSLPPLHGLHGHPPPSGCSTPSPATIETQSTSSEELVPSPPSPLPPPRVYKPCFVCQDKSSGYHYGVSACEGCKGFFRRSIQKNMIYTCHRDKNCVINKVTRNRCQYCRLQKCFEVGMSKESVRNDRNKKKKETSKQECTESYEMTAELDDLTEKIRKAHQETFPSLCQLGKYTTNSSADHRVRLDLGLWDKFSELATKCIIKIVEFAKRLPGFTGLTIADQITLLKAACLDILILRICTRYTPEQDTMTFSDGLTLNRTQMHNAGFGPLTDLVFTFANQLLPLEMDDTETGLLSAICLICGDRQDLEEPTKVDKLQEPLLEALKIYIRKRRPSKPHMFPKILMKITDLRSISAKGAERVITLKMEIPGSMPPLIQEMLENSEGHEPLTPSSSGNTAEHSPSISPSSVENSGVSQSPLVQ
Experiment: ATG_RARb_TRANS: Attagene TRANS-FACTORIAL HepG2 Assay for human Retinoic Acid Receptor beta (AID 2283004)
Results filed as inconclusive are left out. The source made the active and inactive calls. Rule for the calls: active = hit-call score of the fitted dose curve at least 0.9, where 1 is the maximum; inconclusive = response in the unintended direction; inactive = score below 0.9.
readout label: outcome

CCOC(=O)NC(=S)Nc1ccccc1NC(=S)NC(=O)OCC; inactive
Nc1ccccc1C(=O)OCCc1ccccc1; inactive
CC(C)(O)C#N; inactive

* * *

Assay: CCTE_Shafer_MEA_dev_bursting_electrodes_number: CCTE's Neural Network Formation Assay for Number of Bursting Electrodes, Shafer Lab (AID 2284043)
Results filed as inconclusive are left out. Active and inactive are the calls of the source. Rule for the calls: active = hit-call score of the fitted dose curve at least 0.9, where 1 is the maximum; inconclusive = response in the unintended direction; inactive = score below 0.9.
Could you please pick one outcome from this set? active, inactive

// outcome(item) with item = CCOP(=O)(OCC)SCSCC inactive

// outcome(item) with item = CP(=O)(O)CC[C@H](N)C(=O)O inactive

// outcome(item) with item = COC(=O)[C@H]1[C@@H](OC(=O)c2ccccc2)C[C@@H]2CC[C@H]1N2C inactive

// outcome(item) with item = [Cd+2].[Cl-].[Cl-] active

// outcome(item) with item = CCOP(=S)(OCC)SCS(=O)C(C)(C)C (centres undefined) inactive

// outcome(item) with item = CCOP(=O)(Oc1cnc(C(C)(C)C)nc1)OC(C)C (centres undefined) inactive

// outcome(item) with item = C[n+]1ccc(-c2cc[n+](C)cc2)cc1 active

* * *

Assay: ATG_ISRE_CIS: Attagene CIS-FACTORIAL HepG2 Assay for human Interferon Regulatory Factor 1 (IRF1) binding to an Interferon-Stimulated Response Element (ISRE) (AID 2282948)
Conditions: HepG2 ISRE cis-reporter (Attagene), mRNA transcription readout; actives raise or lower the signal
The source made the active and inactive calls. How the source made its calls: active means hit-call score of the fitted dose curve at least 0.9, where 1 is the maximum; inactive means score below 0.9.
Could you please pick one outcome from this set? active, inactive

O=C(O)CCl; inactive

// outcome(item) with item = CC(C)(C)C(=O)CCl inactive

// outcome(item) with item = O=C=Nc1ccccc1 inactive

// outcome(item) with item = CCC(=O)c1ccc(Cl)cc1 inactive

// outcome(item) with item = Nc1ccccc1C(=O)Oc1ccc2ccccc2c1 inactive

// outcome(item) with item = C=Cc1cccc(CCl)c1 active
